Target: Bat-RaTG13 RBD (Bat coronavirus RaTG13, UniProt A0ABF7PLN6)
Assay: BLI
OUTCOME MEASURE: binding result

[[record]]
binder = "R1-32 (antibody, V domains shown) VH: EVQLVESGAEVKKPGSSVKVSCKASGGTFSSYAISWVRQAPGQGLEWMGGIIPILGIANYAQKFQGRVTITADKSTSTAYMELSSLRSEDTAVYYCARENGYSGYGAAANFDLWGRGTLVTVSS VL: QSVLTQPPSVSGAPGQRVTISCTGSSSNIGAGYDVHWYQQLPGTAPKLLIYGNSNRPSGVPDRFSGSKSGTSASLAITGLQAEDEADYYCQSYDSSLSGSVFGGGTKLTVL"
result = "binds"

[[record]]
binder = "C092 (antibody, V domains shown) VH: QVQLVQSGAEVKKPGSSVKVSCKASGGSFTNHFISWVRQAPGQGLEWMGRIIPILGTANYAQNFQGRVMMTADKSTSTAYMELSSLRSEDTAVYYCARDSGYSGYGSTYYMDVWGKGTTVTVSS VL: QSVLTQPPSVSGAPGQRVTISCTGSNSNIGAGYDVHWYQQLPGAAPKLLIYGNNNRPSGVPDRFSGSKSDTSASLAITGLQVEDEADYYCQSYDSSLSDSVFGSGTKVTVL"
result = "binds"

[[record]]
binder = "C807 (antibody, V domains shown) VH: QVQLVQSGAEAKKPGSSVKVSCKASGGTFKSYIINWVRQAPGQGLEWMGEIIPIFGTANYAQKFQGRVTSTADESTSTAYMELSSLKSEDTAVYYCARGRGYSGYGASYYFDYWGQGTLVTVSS VL: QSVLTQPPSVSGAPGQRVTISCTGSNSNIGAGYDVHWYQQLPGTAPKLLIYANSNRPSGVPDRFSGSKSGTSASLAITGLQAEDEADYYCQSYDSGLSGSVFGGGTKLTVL"
result = "binds"

